The measured values listed here are drawn from paper PMC6792352.

Assay: in vitro
Conditions: rat, gh3-tre-luc cells, AC50 (uM) modified / 1000
Where a name gives a salt, the structure may show the parent alone.
Property: CC50 at 24 h

Below, each entry is followed by its recorded CC50 at 24 h result.
Cc1ccc(C2(O)CCN(CCCC(=O)c3ccc(F)cc3)CC2)cc1 [Moperone] | 30.1 µM
Cc1ccccc1C=O [2-Tolualdehyde] | > 90 µM
O=C(/C=C/c1ccccc1)OCCc1ccccc1 [2-Phenylethyl 3-phenylprop-2-enoate] | > 90 µM

Provide CC50 at 24 h values for the following items, in order.
1. Clc1ccc(C2(Cn3cncn3)OCCO2)c(Cl)c1 [Azaconazole]
2. CNC(C)C(O)c1ccc(O)cc1 (stereo not drawn)
3. CN(C)CCC(c1ccccc1)c1ccccn1 (stereo not drawn) [Pheniramine maleate]
4. Clc1cc(Cl)c2c(c1)N=C1CCCCCN1C2
5. O=C1OC(OC(=O)c2cccnc2Nc2cccc(C(F)(F)F)c2)c2ccccc21 (stereo not drawn) [Talniflumate]
6. CCOC(=O)[C@H](CS)NCCN[C@@H](CS)C(=O)OCC [Bicisate dihydrochloride]

1: > 90 µM; 2: > 50 µM; 3: > 90 µM; 4: > 50 µM; 5: > 50 µM; 6: > 50 µM
